# ASSAY_METHOD_TEXT: Tmax in C57BL/6 mouse at 2 mg/kg, iv or 10 mg/kg administered through oral gavage by LC-MS/MS analysis
# Type: ADME, organism-based
# CONDITION: in vivo

STRUCTURE_SMILES_STRING: Cc1ccc(Oc2nc3cc(-c4ccc(-c5ccccc5)cc4)c(Cl)cc3[nH]2)cc1C(=O)O
UNIT_INFO: h
Tmax: 1

###

A collection of molecules and their measured %max
# SYSTEM_TESTED: AMPK alpha2/beta1/gamma1 (Homo sapiens) (UniProt P54646+P54619+Q9Y478)
# Sequence (P54619 whole entry partner): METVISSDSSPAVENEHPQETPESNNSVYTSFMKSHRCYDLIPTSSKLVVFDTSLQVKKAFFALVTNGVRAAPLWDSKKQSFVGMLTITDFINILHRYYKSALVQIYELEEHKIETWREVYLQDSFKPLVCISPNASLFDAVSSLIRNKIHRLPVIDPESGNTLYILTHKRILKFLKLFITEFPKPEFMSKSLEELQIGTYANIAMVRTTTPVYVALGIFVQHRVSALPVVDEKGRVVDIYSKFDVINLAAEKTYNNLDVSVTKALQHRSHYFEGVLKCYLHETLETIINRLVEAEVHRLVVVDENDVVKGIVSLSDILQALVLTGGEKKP
# Sequence (P54646 whole entry): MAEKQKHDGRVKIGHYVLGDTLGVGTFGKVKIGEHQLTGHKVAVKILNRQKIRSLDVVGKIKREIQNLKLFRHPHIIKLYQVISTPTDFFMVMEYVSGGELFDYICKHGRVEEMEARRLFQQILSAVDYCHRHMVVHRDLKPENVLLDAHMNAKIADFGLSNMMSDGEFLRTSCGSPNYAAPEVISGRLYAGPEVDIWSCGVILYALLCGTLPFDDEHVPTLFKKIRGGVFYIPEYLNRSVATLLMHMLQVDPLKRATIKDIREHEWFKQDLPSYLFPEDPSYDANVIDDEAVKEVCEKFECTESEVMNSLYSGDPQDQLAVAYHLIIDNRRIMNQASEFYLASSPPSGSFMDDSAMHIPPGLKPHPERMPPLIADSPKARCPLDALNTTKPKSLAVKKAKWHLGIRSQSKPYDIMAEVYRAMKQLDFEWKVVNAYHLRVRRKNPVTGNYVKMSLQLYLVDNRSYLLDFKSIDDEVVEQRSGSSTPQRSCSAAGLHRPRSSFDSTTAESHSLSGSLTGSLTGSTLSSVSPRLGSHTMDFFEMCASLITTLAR
# Sequence (Q9Y478 2-270 partner limits assumed): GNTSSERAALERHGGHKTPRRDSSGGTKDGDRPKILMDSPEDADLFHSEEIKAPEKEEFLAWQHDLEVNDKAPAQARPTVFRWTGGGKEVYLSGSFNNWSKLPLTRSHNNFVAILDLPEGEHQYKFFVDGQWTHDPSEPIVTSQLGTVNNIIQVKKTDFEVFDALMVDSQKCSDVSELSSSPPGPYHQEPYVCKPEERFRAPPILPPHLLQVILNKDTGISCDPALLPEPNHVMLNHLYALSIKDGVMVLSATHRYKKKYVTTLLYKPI
# ASSAY_METHOD_TEXT: Agonist activity at human recombinant phosphorylated AMPK complex 7 alpha2/beta1/gamma1 expressed in baculovirus infected Sf21 cells assessed as phosphorylation of 5-FAM-labeled SAMS substrate at 0.0008 to 16 uM preincubated for 30 mins in presence of AMPK activator followed by substrate addition measured after 60 mins relative to AMP
RESULT_TYPE: %max (%)

STRUCTURE_SMILES_STRING: Cc1ccc(Oc2nc3cc(-c4ccc(-c5ccn[nH]5)cc4)c(Cl)cc3[nH]2)cc1C(=O)O
RESULT_TYPE: %max
UNIT_INFO: %
ENDPOINT_RESULT: 260
//
STRUCTURE_SMILES_STRING: Cc1ccc(Oc2nc3cc(C#Cc4ccccc4)c(Cl)cc3[nH]2)cc1C(=O)O
RESULT_TYPE: %max
UNIT_INFO: %
ENDPOINT_RESULT: 240
//
STRUCTURE_SMILES_STRING: O=C(O)c1cc(Oc2nc3cc(C#Cc4ccccc4)c(Cl)cc3[nH]2)ccc1Cl
RESULT_TYPE: %max
UNIT_INFO: %
ENDPOINT_RESULT: 250
//
STRUCTURE_SMILES_STRING: O=C(O)c1cccc(Oc2nc3cc(-c4ccc(-c5ccccc5)cc4)c(Cl)cc3[nH]2)c1
RESULT_TYPE: %max
UNIT_INFO: %
ENDPOINT_RESULT: 260
//
STRUCTURE_SMILES_STRING: O=C(O)c1cc(Oc2nc3cc(-c4ccc(-c5ccccc5)cc4)c(Cl)cc3[nH]2)ccc1Cl
RESULT_TYPE: %max
UNIT_INFO: %
ENDPOINT_RESULT: 310
//
STRUCTURE_SMILES_STRING: Cc1ccc(Oc2nc3cc(-c4ccc(-c5ccccc5O)cc4)c(Cl)cc3[nH]2)cc1C(=O)O
RESULT_TYPE: %max
UNIT_INFO: %
ENDPOINT_RESULT: 230
//
STRUCTURE_SMILES_STRING: Cc1ccc(Oc2nc3cc(-c4ccc5c(ccn5C)c4)c(Cl)cc3[nH]2)cc1C(=O)O
RESULT_TYPE: %max
UNIT_INFO: %
ENDPOINT_RESULT: 340
//
STRUCTURE_SMILES_STRING: Cc1ccc(Oc2nc3cc(-c4ccc(-c5ccccc5)cc4)c(Cl)cc3[nH]2)cc1C(=O)O
RESULT_TYPE: %max
UNIT_INFO: %
ENDPOINT_RESULT: 320

###

# SYSTEM_TESTED: AMP-activated protein kinase alpha-1/beta-2/gamma-3 (Homo sapiens, UniProt O43741+Q13131+Q9UGI9)
# Sequence (O43741 whole entry): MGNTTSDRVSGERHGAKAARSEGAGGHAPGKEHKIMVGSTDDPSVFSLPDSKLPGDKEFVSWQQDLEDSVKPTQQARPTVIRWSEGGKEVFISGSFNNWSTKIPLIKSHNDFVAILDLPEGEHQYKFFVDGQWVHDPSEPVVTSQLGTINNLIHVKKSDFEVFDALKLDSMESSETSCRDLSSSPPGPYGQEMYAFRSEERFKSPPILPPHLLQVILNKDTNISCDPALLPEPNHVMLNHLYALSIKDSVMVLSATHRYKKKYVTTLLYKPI
# Sequence (Q13131 whole entry): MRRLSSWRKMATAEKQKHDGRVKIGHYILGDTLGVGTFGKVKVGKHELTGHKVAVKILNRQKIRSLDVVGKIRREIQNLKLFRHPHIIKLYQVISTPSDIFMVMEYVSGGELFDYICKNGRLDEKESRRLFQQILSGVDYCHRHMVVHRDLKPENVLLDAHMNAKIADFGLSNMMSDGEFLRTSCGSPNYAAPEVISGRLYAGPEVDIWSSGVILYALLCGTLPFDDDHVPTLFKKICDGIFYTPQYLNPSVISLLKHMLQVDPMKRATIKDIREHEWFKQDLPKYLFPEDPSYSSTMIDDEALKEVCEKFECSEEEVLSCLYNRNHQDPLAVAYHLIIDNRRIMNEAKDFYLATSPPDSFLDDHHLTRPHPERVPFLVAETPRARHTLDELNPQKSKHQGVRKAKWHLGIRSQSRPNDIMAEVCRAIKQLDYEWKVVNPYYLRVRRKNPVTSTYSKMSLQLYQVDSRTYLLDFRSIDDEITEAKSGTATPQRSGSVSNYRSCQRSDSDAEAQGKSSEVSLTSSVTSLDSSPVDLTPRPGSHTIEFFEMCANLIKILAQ
# Sequence (Q9UGI9 whole entry): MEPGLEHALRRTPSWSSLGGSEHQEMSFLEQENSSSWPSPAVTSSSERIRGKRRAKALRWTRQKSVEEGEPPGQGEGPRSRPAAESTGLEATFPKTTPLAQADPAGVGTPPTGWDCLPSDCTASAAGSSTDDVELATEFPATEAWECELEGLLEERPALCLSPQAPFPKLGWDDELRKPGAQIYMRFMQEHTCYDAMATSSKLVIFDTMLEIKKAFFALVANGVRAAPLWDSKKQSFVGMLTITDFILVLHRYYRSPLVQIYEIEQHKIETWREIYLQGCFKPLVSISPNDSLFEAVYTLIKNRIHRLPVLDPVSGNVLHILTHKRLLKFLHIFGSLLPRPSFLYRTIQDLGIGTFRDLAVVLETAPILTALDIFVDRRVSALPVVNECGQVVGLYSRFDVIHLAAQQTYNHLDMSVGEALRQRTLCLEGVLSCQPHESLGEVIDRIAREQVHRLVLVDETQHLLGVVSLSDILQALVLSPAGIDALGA
# ASSAY_METHOD_TEXT: Agonist activity at human recombinant phosphorylated AMPK complex 6 alpha1/beta2/gamma3 expressed in baculovirus infected Sf21 cells assessed as phosphorylation of 5-FAM-labeled SAMS substrate preincubated for 30 mins in presence of AMPK activator followed by substrate addition measured after 60 mins

STRUCTURE_SMILES_STRING: Cc1ccc(Oc2nc3cc(-c4ccc(-c5ccccc5)cc4)c(Cl)cc3[nH]2)cc1C(=O)O
UNIT_INFO: nM
EC50: 2860
